Listed below: relative viability values for each entry.
Test system: NCI-H1993
experimentalProtocol: relative viability (nuclei count vs DMSO), 5 days (fraction); higher = more cells survive
cond: first compound 2.53 µM
Answer as a number with no unit attached.

Worked examples follow.
compound	studySystem	observationType	numericReadout
Nc1cccc2c1CN(C1CCC(=O)NC1=O)C2=O (stereo not drawn) [Lenalidomide] + NC(=O)Nc1cc(-c2cccc(F)c2)sc1C(=O)N[C@H]1CCCNC1 [AZD7762] (partner 0.2 µM)	NCI-H1993	relative viability	0.702
Nc1cccc2c1CN(C1CCC(=O)NC1=O)C2=O (stereo not drawn) [Lenalidomide] + CS(=O)(=O)CCNCc1ccc(-c2ccc3ncnc(Nc4ccc(OCc5cccc(F)c5)c(Cl)c4)c3c2)o1 [Lapatinib] (partner 2 µM)	NCI-H1993	relative viability	0.821

Turning to the following compound.
(Q) GET /values?readout=relative viability&item= Nc1cccc2c1CN(C1CCC(=O)NC1=O)C2=O (stereo not drawn) [Lenalidomide] + CCNC(=O)c1noc(-c2cc(C(C)C)c(O)cc2O)c1-c1ccc(CN2CCOCC2)cc1 [Luminespib] (partner 0.01 µM)
(A) 0.767

====

Tested on: HARA
experimentalProtocol: relative viability (nuclei count vs DMSO), 5 days (fraction); higher = more cells survive
cond: first compound 0.003162 µM
observationType: relative viability
Answer as a number with no unit attached.

compound	relative viability
Cc1cn(-c2cc(NC(=O)c3ccc(C)c(Nc4nccc(-c5cccnc5)n4)c3)cc(C(F)(F)F)c2)cn1 [Nilotinib] + COc1cc2c(Oc3ccc(NC(=O)C4(C(=O)Nc5ccc(F)cc5)CC4)cc3F)ccnc2cc1OCCCN1CCOCC1 [Foretinib] (partner 0.25 µM)	0.646

(Q) GET /values?readout=relative viability&item= Cc1cn(-c2cc(NC(=O)c3ccc(C)c(Nc4nccc(-c5cccnc5)n4)c3)cc(C(F)(F)F)c2)cn1 [Nilotinib] + Cc1nc(Nc2ncc(C(=O)Nc3c(C)cccc3Cl)s2)cc(N2CCN(CCO)CC2)n1 [Dasatinib] (partner 0.075 µM)
(A) 0.345

(Q) Another: Cc1cn(-c2cc(NC(=O)c3ccc(C)c(Nc4nccc(-c5cccnc5)n4)c3)cc(C(F)(F)F)c2)cn1 [Nilotinib] + CCNC(=O)c1noc(-c2cc(C(C)C)c(O)cc2O)c1-c1ccc(CN2CCOCC2)cc1 [Luminespib] (partner 0.01 µM)
(A) 1.24

(Q) Another: Cc1cn(-c2cc(NC(=O)c3ccc(C)c(Nc4nccc(-c5cccnc5)n4)c3)cc(C(F)(F)F)c2)cn1 [Nilotinib] + CC(=O)Nc1cccc(-n2c(=O)n(C3CC3)c(=O)c3c(Nc4ccc(I)cc4F)n(C)c(=O)c(C)c32)c1 [Trametinib] (partner 0.02 µM)
(A) 0.468

(Q) Another: Cc1cn(-c2cc(NC(=O)c3ccc(C)c(Nc4nccc(-c5cccnc5)n4)c3)cc(C(F)(F)F)c2)cn1 [Nilotinib] + CS(=O)(=O)CCNCc1ccc(-c2ccc3ncnc(Nc4ccc(OCc5cccc(F)c5)c(Cl)c4)c3c2)o1 [Lapatinib] (partner 2 µM)
(A) 0.777

(Q) Another: Cc1cn(-c2cc(NC(=O)c3ccc(C)c(Nc4nccc(-c5cccnc5)n4)c3)cc(C(F)(F)F)c2)cn1 [Nilotinib] + O=C(CCCCCCC(=O)Nc1ccccc1)NO [Vorinostat] (partner 1 µM)
(A) 0.668
